target: UniProt Q99405; experiment: Effects of metal ions on protease activity; format: biochemical, Bacillus sp. KSM-K16; details: metal salt 1 mM, pH 9.5, 30°C for 20 minutes; relative to no metal salt
Sequence (Q99405 112-380): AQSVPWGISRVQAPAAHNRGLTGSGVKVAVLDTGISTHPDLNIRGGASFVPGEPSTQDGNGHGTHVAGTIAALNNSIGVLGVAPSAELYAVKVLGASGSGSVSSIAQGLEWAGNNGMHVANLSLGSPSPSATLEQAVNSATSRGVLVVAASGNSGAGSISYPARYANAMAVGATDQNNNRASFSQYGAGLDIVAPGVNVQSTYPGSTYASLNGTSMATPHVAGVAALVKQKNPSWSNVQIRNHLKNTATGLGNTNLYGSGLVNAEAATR
measure: Residual Activity (%)

{"columns": ["compound", "measure", "number"],
 "data": [
  ["O=[N+]([O-])[O-].[Ag+] [AgNO₃]", "Residual Activity", 86],
  ["[Cl-].[Cl-].[Zn+2] [ZnCl₂]", "Residual Activity", 106],
  ["[Cl][Hg][Cl] [HgCl₂]", "Residual Activity", 46],
  ["[Cl-].[Cl-].[Co+2] [CoCl₂]", "Residual Activity", 103],
  ["[Cl][Ni][Cl] [NiCl₂]", "Residual Activity", 103],
  ["[Ca+2].[Cl-].[Cl-] [CaCl₂]", "Residual Activity", 103],
  ["[Cl][Pb][Cl] [PbCl₂]", "Residual Activity", 100],
  ["O=S(=O)([O-])[O-].[Cu+2] [CuSO₄]", "Residual Activity", 73]
]}
